system: ATP; experiment: switch fluorescence ratio, 500 uM ATP over buffer (Cy3 cluster intensity, sum of 5 cycles each) (fold (ratio)); higher = stronger signal-on switching upon ATP binding; sequences stand for … in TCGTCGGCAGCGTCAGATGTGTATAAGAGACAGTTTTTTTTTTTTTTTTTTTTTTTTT…TC; conditions: aptamer strand: ATP DNA aptamer (quencher-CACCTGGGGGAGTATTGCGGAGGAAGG + anchor), 100 nM annealed; ATP concentration: 500 uM;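 further: ATP exposure 15 min at 22 °C before imaging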
Field: switch fluorescence ratio. Provide a value for each of the sequences that follow.
Answers are plain numbers.

See these solved cases before continuing.
Sequence String	System	switch fluorescence ratio
GTGGTTAGCA	ATP	0.971
TGGAATTTAG	ATP	1.01
GATGATTATC	ATP	0.986
GAAGGGGGG	ATP	1
CTGATTTTTT	ATP	1.02

Parameter requested: switch fluorescence ratio. Apply to each item below.
1. TTAGTTAAT
2. TTAGTTTTGA

Response given:
1. 1.02
2. 1

Parameter requested: switch fluorescence ratio. Apply to each item below.
1. ATTTGGTGTT
2. GCTATAGAAT
3. GTCTTTTGTA

Response given:
1.01
1.01
0.983

Parameter requested: switch fluorescence ratio. Apply to each item below.
1. CCAGGCTGTT
2. GACATCCGGC

Response given:
1.07
1.05

====

test system: ATP; experiment: switch fluorescence ratio, 500 uM ATP over buffer (Cy3 cluster intensity, sum of 5 cycles each) (fold (ratio)); higher = stronger signal-on switching upon ATP binding; sequences stand for … in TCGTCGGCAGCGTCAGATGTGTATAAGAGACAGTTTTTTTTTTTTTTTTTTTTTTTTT…TC; conditions: aptamer strand: ATP DNA aptamer (quencher-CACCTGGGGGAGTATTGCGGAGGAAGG + anchor), 100 nM annealed; ATP concentration: 500 uM;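 further: ATP exposure 15 min at 22 °C before imaging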
Field: switch fluorescence ratio. Provide a value for each of the sequences that follow.
Numbers only.

See these solved cases before continuing.
Sequence String	System	Measurement Type	Number
TTTTGGTTCC	ATP	switch fluorescence ratio	1.01
TTGAGTTTGT	ATP	switch fluorescence ratio	0.977

Parameter requested: switch fluorescence ratio. Apply to each item below.
1. TAGAGGGGTT
2. GCTAGGCATG
3. TCTCATTCAG
4. TGGGGTATAA
5. ATTTTTAAGG
6. TCGGGGCCGC
7. CTGGGTCCGG
8. ATTGTTGTTC

Response given:
[0.985, 1.04, 1.06, 1, 0.995, 0.981, 1.01, 1.06]

Parameter requested: switch fluorescence ratio. Apply to each item below.
1. TGTGAGGGGT
2. GGGGATCGCG
3. GGGGGGAGGC

Response given:
0.994
0.986
0.995

Parameter requested: switch fluorescence ratio. Apply to each item below.
1. TAGTTGATAA
2. GAGGGGGGCC
3. GTTAGTTAGG
4. ACGTGGGGGG
5. TTATGGGGCG
6. ATATAAAGGG

Response given:
0.996
1.01
0.976
1.04
1.02
0.996

Parameter requested: switch fluorescence ratio. Apply to each item below.
1. GCCGTGTTTT
2. TGTGGGCGC
3. ATTTTGGTAT
4. TTTGGACAGG

Response given:
1: 1.01; 2: 1.01; 3: 1.01; 4: 1

Values were extracted from the supplement of paper PMC10126150.
